assay_method_text: Basic solubility at 25° C. in ethanol, PEG 400, propylene glycol (PG) and buffer solution; solubility ratio non-aqueous solvent / buffer solution
condition: 25° C.; buffer pH 7.0 (pH 7.4 for cabozantinib and telmisartan; pH 6.0 for rebamipide)
parameter: Solubility ratio of solvent with respect to buffer solution PG/buffer solution

Some compounds with known Solubility ratio of solvent with respect to buffer solution PG/buffer solution results, for comparison:
O=C(NC(Cc1cc(=O)[nH]c2ccccc12)C(=O)O)c1ccc(Cl)cc1 (stereo not shown) [Rebamipide]
4.88
COC1=CC(=O)C[C@@H](C)[C@]12Oc1c(Cl)c(OC)cc(OC)c1C2=O [Griseofulvin]
200.23
C[C@@H](O[C@H]1OCCN(Cc2n[nH]c(=O)[nH]2)[C@H]1c1ccc(F)cc1)c1cc(C(F)(F)F)cc(C(F)(F)F)c1 [Aprepitant]
43995.44
COc1cc2nccc(Oc3ccc(NC(=O)C4(C(=O)Nc5ccc(F)cc5)CC4)cc3)c2cc1OC [Cabozantinib]
1213400.25
COC(=O)Nc1nc2cc(C(=O)c3ccc(F)cc3)ccc2[nH]1 [Flubendazole]
1401.17

a. Cc1ccc(-c2cc(C(F)(F)F)nn2-c2ccc(S(N)(=O)=O)cc2)cc1 [Cel ? coxib]
b. O=C1Nc2ccc(Cl)cc2[C@@](C#CC2CC2)(C(F)(F)F)O1 [Efavir ? nt]
Task: Exercise: compare a and b ; which one has the greater Solubility ratio of solvent with respect to buffer solution PG/buffer solution? Pick one and reply with its label.
Output: b

a. O=C1CCc2cc(OCCCCc3nnnn3C3CCCCC3)ccc2N1 [Cilostazol]
b. CC1(C)O[C@@H]2C[C@H]3[C@@H]4C[C@H](F)C5=CC(=O)C=C[C@]5(C)[C@@]4(F)[C@@H](O)C[C@]3(C)[C@]2(C(=O)CO)O1 [Fluocinolone acetonide]
c. CC1(C)O[C@@H]2C[C@H]3[C@@H]4CCC5=CC(=O)C=C[C@]5(C)[C@H]4[C@@H](O)C[C@]3(C)[C@]2(C(=O)CO)O1 [Desonide]
Task: Order these by Solubility ratio of solvent with respect to buffer solution PG/buffer solution, descending, and give the full ranking. Return value: ordered labels per request.
Output: b, a, c
(b: 2007.24, a: 761.23, c: 174.69)

a. CC1(C)O[C@@H]2C[C@H]3[C@@H]4CCC5=CC(=O)C=C[C@]5(C)[C@@]4(F)[C@@H](O)C[C@]3(C)[C@]2(C(=O)CO)O1 [Triamsinolone acetonide]
b. CNC(=O)c1cc(Oc2ccc(NC(=O)Nc3ccc(Cl)c(C(F)(F)F)c3)c(F)c2)ccn1 [Regorafenib]
c. CNC(=O)c1cc(Oc2ccc(NC(=O)Nc3ccc(Cl)c(C(F)(F)F)c3)cc2)ccn1 [Soraf ? nib]
d. CCCc1nc2c(C)cc(-c3nc4ccccc4n3C)cc2n1Cc1ccc(-c2ccccc2C(=O)O)cc1 [Telmisartan]
Task: Please produce an ascending ranking of these compounds based on Solubility ratio of solvent with respect to buffer solution PG/buffer solution. Return value: ordered labels per request.
Output: d, a, b, c

* * *

assay_method_text: Basic solubility at 25° C. in ethanol, PEG 400, propylene glycol (PG) and buffer solution; solubility ratio non-aqueous solvent / buffer solution
condition: 25° C.; buffer pH 7.0 (pH 7.4 for cabozantinib and telmisartan; pH 6.0 for rebamipide)
parameter: Solubility ratio of solvent with respect to buffer solution Ethanol/buffer solution

Some molecules with known Solubility ratio of solvent with respect to buffer solution Ethanol/buffer solution results, for comparison:
CC1(C)O[C@@H]2C[C@H]3[C@@H]4C[C@H](F)C5=CC(=O)C=C[C@]5(C)[C@@]4(F)[C@@H](O)C[C@]3(C)[C@]2(C(=O)CO)O1 [Fluocinolone acetonide]
2685.78
COC(=O)Nc1nc2cc(C(=O)c3ccc(F)cc3)ccc2[nH]1
745.67

I. CCCc1nc2c(C)cc(-c3nc4ccccc4n3C)cc2n1Cc1ccc(-c2ccccc2C(=O)O)cc1
II. CC1(C)O[C@@H]2C[C@H]3[C@@H]4CCC5=CC(=O)C=C[C@]5(C)[C@@]4(F)[C@@H](O)C[C@]3(C)[C@]2(C(=O)CO)O1 [Triamsinolone acetonide]
Task: Exercise: compare I and II ; which one has the greater Solubility ratio of solvent with respect to buffer solution Ethanol/buffer solution? Pick one and reply with its label.
Output: II
